Assay: DPPH radical scavenging activity relative to control
Format: functional
pIC50: −log10 of the molar value.
PROPERTY LABEL: pIC50

Answered cases to consult:
> print(dat)
                                   compound  value.measured
1      Oc1cc(CCc2cc(O)c(O)c(Br)c2)cc(Br)c1O            4.71
2  O=C(O)C(Cc1cc(O)c(O)c(Br)c1)c1cc(Br)c(O)c(Br)c1 (stereo not given)            4.66

(a) CCCCOC(=O)Cc1cc(Br)c(O)c(Br)c1
(b) Cc1cc(C(C)(C)C)c(O)c(C(C)(C)C)c1 [BUTYLATED HYDROXYTOLUENE]
(c) CC(=O)/C=C/c1cc(O)c(O)c(Br)c1
Would you mind ranking these compounds by ascending pIC50? Note for the reader: the ranking is given by listing the labels in the order requested.
b, a, c
(b: 4.08, a: 4.79, c: 5.01)

Reference source for all entries: ChEMBL document CHEMBL1137454
